Tested on: SNB-75 CNS
runDescription: NCI-60 one-dose screen, 48 h (100 = growth as untreated, 0 = no growth, -100 = all killed)
assayContext: 10 µM
About 83,000 compounds went through this panel and 20% of them were active in at least one assay; those are over-represented in the sample as a whole.
reportedEndpoint: growth (%)
Numbers only, in %.

Take a look at these entries with their results.
O=C(Nc1ccc(OCc2ccccc2)cc1)Nc1ccc(Cl)c(C(F)(F)F)c1 ... -20.2
CCN1CCN(c2ccc(NC(=O)Nc3ccc(-c4cc(C(=O)NC(C)C)c5ncccc5n4)cc3)cc2C(F)(F)F)CC1 ... -94.3

Hi team, please reply with growth for each item in this list.
1. O=C(CSc1nnc(-c2ccc3nc(-c4ccc(Cl)cc4)[nH]c3c2)o1)Nc1ccc(Cl)cc1
2. C#Cc1ccc(S(=O)(=O)Nc2cccc(-c3csc(NC(C)=O)n3)c2)cc1
3. COc1cnc2c(c1)C(=O)c1c-2n(CCCNC(C)C)c(=O)c2cc(OC)c(OC)cc12
4. COc1ccc2c3nc4cc(C)c(C)cc4nc3n(CCN(C)C)c2c1
5. COc1ccc2[nH]c(=O)c(CSc3cccc(N)c3)cc2c1
6. C/C(=N\N=C\c1ccc(Cl)c([N+](=O)[O-])c1)c1ccc2c(c1)Nc1ccccc1S2

1. 58
2. 60.4
3. 70.7
4. 21.5
5. 82.7
6. 109

# batch: return growth for each of the 2 compounds below
1. CC(C)c1ccc(C(=O)Nc2sc3c(c2C(N)=O)CCC(=O)C3=O)cc1
2. COc1ccccc1[C@H]1C(C(=O)c2ccc(Cl)cc2)C2(N[C@@H]1c1ccccc1)C(=O)Nc1ccc(Cl)cc12 (stereo partly specified)

1: 98.2; 2: 40.9

Okay, here is my list. What is growth for each of these?
1. C=C1CCC2C3(C)COC(c4ccccc4F)OC3CCC2(C)C1C/C=C1/C(=O)OCC1O (stereo unspecified)
2. COc1cc(NC(=O)c2cc(-c3ccc(F)cc3F)ccc2O)cc(OC)c1OC
3. C=CC(=O)Nc1ccc(C(=O)/C=C/c2ccc(N(C)CCF)cc2)c(O)c1
4. CC(=O)OC[C@@]1(C)C2CC[C@]3(C)C(CC=C4C5CC(C)(C)CC[C@]5(C(=O)Nc5ccccc5)CC[C@]43C)[C@@]2(C)C[C@@H](OC(C)=O)[C@@H]1OC(C)=O (stereo partly specified)
5. O=C(Nc1ccc(Cl)c([N+](=O)[O-])c1)Nc1ccc(Cl)c([N+](=O)[O-])c1
6. COc1nccnc1NS(=O)(=O)c1ccc(NC2=C(Cl)C(=O)c3nc(C)ccc3C2=O)cc1
7. O=[N+]([O-])c1ccc(-c2nc(-c3ccccc3)c(-c3ccccc3)n2-c2ccc(S(=O)(=O)Nc3ncccn3)cc2)cc1

[-58.3, 40.9, -8.38, 58.4, 61.2, 111, 44.1]

----------
Tested on: MALME-3M melanoma
runDescription: NCI-60 one-dose screen, 48 h (100 = growth as untreated, 0 = no growth, -100 = all killed)
assayContext: 10 µM
This is part of a sample that, as a whole, favours compounds with a hit. Of some 83,000 tested, about 20% had one in any assay.
Kindly supply the reported growth values for the records listed here.
Numbers only, in %.

Please review the entries below; each comes with its answer.
Cc1ccc(CSc2nc(Cl)c(C#N)c(-c3ccc(F)cc3)n2)cc1 ... 113
Cc1cccc2cc(-c3cc(-c4ccccc4)nc(=O)[nH]3)c(Cl)nc12 ... 96.6

Would you be so kind as to report growth for each listed record?
1. N#Cc1c(-c2ccc(F)cc2)nc(SCc2ccc([N+](=O)[O-])cc2)nc1N1CCOCC1
2. O=C(CSc1nnc(-c2c[nH]c3ccccc23)n1-c1ccccc1)c1ccc(Cl)cc1
3. COc1cc2c3c(n(CCCn4ccnc4)c(=O)c2cc1OC)-c1nc2c(cc1C3=O)OCO2
4. O=c1c2ccccc2nc(COc2ccccc2)n1/N=C/c1ccc(N2CCOCC2)cc1
5. Cc1cc(C)nc(NS(=O)(=O)c2ccc(N/C(N)=N/c3nccc(-c4cccs4)n3)cc2)n1
6. O=C(c1ccc(Cl)cc1)C1[C@H](c2ccc(Br)cc2)[C@@H](c2ccccc2)NC12C(=O)Nc1ccccc12 (some centres undefined)
7. COc1ccc(C(=O)/C=C/c2cc(F)cc(C(F)(F)F)c2)cc1S(N)(=O)=O

1. 42.8
2. 64
3. 59.9
4. 56.8
5. 94.2
6. -35.9
7. -64.2

----------
Tested on: TK-10 renal
runDescription: NCI-60 one-dose screen, 48 h (100 = growth as untreated, 0 = no growth, -100 = all killed)
assayContext: 10 µM
Procedure: Growth inhibition of the TK-10 human tumor cell line is measured as a screen for anti-cancer activity. Cells are grown in 96 well plates and exposed to the test compound for 48 hours. Compounds are tested at a single concentration, which is 10^-5 M for most compounds. The reported endpoint is percent growth (GI% or GIPRCNT), where numbers from 0 - 100% represent growth inhibition, and numbers from -100% - 0 represent cell death. For example, a value of 40 represents 60% growth inhibition. […]
About 83,000 compounds went through this panel and 20% of them were active in at least one assay; those are over-represented in the sample as a whole.
reportedEndpoint: growth (%)
Give bare numbers, in %.

Cn1c(O)c(N=Nc2nc(-c3cc4ccccc4oc3=O)cs2)c2cc(Br)ccc21 ... 56.8
COC1=C[C@@]23CCC(=O)N2CCc2cc4c(cc2[C@H]3[C@H]1OC(=O)C(C)(C)O)OCO4 ... 97.7
O=C(Nc1cccc(C(F)(F)F)c1)c1cncc(C#Cc2cnc3cccnn23)c1 ... 97.8
COc1csc(/C=N/NC(=O)c2[nH]c3ccc(Br)cc3c2-c2ccccc2)c1 ... 32.8
COc1ccc(-c2c(N)c(=O)n(C)c3ccccc23)cc1 ... 118
O=C(NC(=S)N1CCN(c2ncnc3c2cnn3-c2ccccc2)CC1)c1ccc(Cl)cc1 ... 109
Cc1ccc2nc3c(nc2c1)c1cc(I)ccc1n3CCN(C)C ... 48.9
Cc1ccc(-c2nc(Nc3ccccc3C(=O)O)c3ccccc3n2)cc1 ... 58.9
Cc1ccc(NCC(=O)Nn2c(COc3ccccc3)nc3ccccc3c2=O)cc1 ... 86.9
Cc1ccc(NC(=O)NCn2c(=O)[nH]c3ccccc3c2=O)cc1 ... 72.5

Each of the following entries comes with a recorded value; kindly state growth for each.
1. COc1ccc(NC(=O)Cn2c(/C=C/c3ccc(N(C)C)cc3)nc3ccccc3c2=O)cc1
2. CN1CCN(c2ccc(Nc3nc(NCCCNC(=O)c4ccc(F)cc4)c4sccc4n3)cc2)CC1
3. Cc1ccc(C(=O)N/C(=C2/OCCN2C)[P+](c2ccccc2)(c2ccccc2)c2ccccc2)cc1
4. O=C(CS(=O)(=O)c1oc(-c2ccc(Cl)cc2)nc1S(=O)(=O)c1ccc(Cl)cc1)N1CCOCC1
5. Nc1nc(Nc2ccc(Cl)cc2)nn1Cc1cccc(Br)c1
6. O=C(Nc1cccc(-c2cn(-c3ccc4oc(=O)ccc4c3)nn2)c1)Nc1cc(C(F)(F)F)cc(C(F)(F)F)c1

62.8
119
102
16.5
61.1
50.9

----------
Test system: HT29 colon
runDescription: NCI-60 one-dose screen, 48 h
assayContext: 10 µM
About 83,000 compounds went through this panel and 20% of them were active in at least one assay; those are over-represented in the sample as a whole. Calls of active or inactive are those of the source. Rule for the calls: active = growth percent below 10; inactive = the rest.
// one of true (active), false (inactive), no free text

Sample answers from the record:
COc1cc(/C=C/C(=O)c2ccc(C(F)(F)F)cc2)ccc1Oc1nc(Nc2ccc(F)cc2)nc(N(C)C)n1 ... false
C=C[C@@]12CN3CC[C@]1(O)[C@@](C(=O)OC)(CO2)c1[nH]c2ccccc2c1C3 ... false
C[C@H]1[C@H](C)CC[C@]2(COC(=O)CCC(=O)NCC#CCN3CCNCC3)CC[C@]3(C)C(=CC[C@@H]4[C@@]5(C)CCCNC(C)(C)[C@@H]5CC[C@]43C)[C@H]12 ... true
O=C(CSc1ccc(-c2ccc(Cl)cc2)nn1)Nc1ccc(Cl)c(C(F)(F)F)c1 ... false
COc1ccc(OC)c(/C=N/NC(=O)c2ccc3nc(-c4ccc(Cl)cc4)[nH]c3c2)c1 ... false

# evaluate next
Test call, this molecule: CCOC(=O)CNC(=O)CN(Cc1ccccc1)C(=O)[C@@]1(C)CCC[C@]2(C)[C@H]3C[C@H]4C(C(C)C)=C[C@]3(CC[C@H]21)[C@@H]1C(=O)OC(=O)[C@@H]14
false

----------
Tested on: HOP-92 NSCLC
runDescription: NCI-60 one-dose screen, 48 h
assayContext: 10 µM
Experimental: Growth inhibition of the HOP-92 human Non-Small Cell Lung tumor cell line is measured as a screen for anti-cancer activity. Cells are grown in 96 well plates and exposed to the test compound for 48 hours. Compounds are tested at a single concentration, which is 10^-5 M for most compounds. The reported endpoint is percent growth (GI% or GIPRCNT), where numbers from 0 - 100% represent growth inhibition, and numbers from -100% - 0 represent cell death. […]
The panel holds about 83,000 compounds, 20% with a hit somewhere; the sample as a whole holds those more often. Calls of active or inactive are those of the source. Rule for the calls: active = growth percent below 10; inactive = the rest.
# output must be one of y for active, n for inactive

Completed entries (count: 7):
C=C1CCC2C3(C)COC(c4cc(F)cc(F)c4)OC3CCC2(C)C1C/C=C1/C(=O)OCC1O (stereo not drawn) ... y
COc1cc2oc(-c3cccc(C(=O)Nc4ccc(Cl)cc4)c3)cc(=O)c2c(OCCNC(=O)CNC(=O)OC(C)(C)C)c1OC ... n
CN(C)c1ccc(/C=C/c2nc3ccccc3c(=O)n2CC(=O)Nc2ccccc2)cc1 ... n
CC[C@@]1(O)C(=O)OCc2c1cc1n(c2=O)Cc2c-1nc1cc(F)c(C)c3c1c2[C@@H](N)CC3 ... n
CCOC(=O)CNC(=O)CN(Cc1ccccc1)C(=O)[C@@]1(C)CCC[C@]2(C)[C@H]3C[C@H]4C(C(C)C)=C[C@]3(CC[C@H]21)[C@@H]1C(=O)OC(=O)[C@@H]14 ... n
CC(=O)Nc1ccc(-c2cn(-c3cccc(C(=O)Nc4cccc(OC(F)(F)F)c4)c3)nn2)cn1 ... n
CN1C(=O)N(C)C2SC(N/N=C/c3cccs3)=NC21 (stereo not drawn) ... n

Next molecule, please.
Per the assay record, what outcome was assigned to O=C(Nc1ccccc1)Nc1nc2ccccc2s1 ?
n
